- run description: DPPH radical scavenging assay
- Assay type: biochemical
- condition context: 0.03 mg/mL, 5 min
experimental readout: inhibition (%)
// units = %; emit number, no label

Sample answers from the record:
>>> test_result("C=CCNC(=[Se])NC(=O)c1cccc(C(=O)NC(=[Se])NCC=C)c1 [Compound 10.II]")
69.1
>>> test_result("C=CCNC(=[Se])NC(=O)/C=C/c1ccc2c(c1)OCO2 [Compound 9.II]")
6.1

inhibition reported for this molecule C#CCNC(=[Se])NC(=O)c1ccc2c(c1)OCO2 [Compound 8.III] : 17.9

inhibition reported for this molecule C#CCNC(=[Se])NC(=O)c1ccccc1 [Compound 5.III] : 9.8

inhibition reported for this molecule CCCNC(=[Se])NC(=O)c1ccccc1 [Compound 5.I, N-(propylcarbamoselenoyl)benzamide] : 16.6

inhibition reported for this molecule C#CCNC(=[Se])NC(=O)c1cccs1 [Compound 2.III] : 12.8

inhibition reported for this molecule C=CCNC(=[Se])NC(=O)c1ccccc1 [Compound 5.II, N-(allylcarbamoselenoyl)benzamide] : 42.4

inhibition reported for this molecule C=CCNC(=[Se])NC(=O)/C=C/c1ccco1 [Compound 3.II] : 5.2

---

- Test system: HTB-54 (lung) cancer cell line
- run description: MTT cell viability assay, HTB-54
- Type: cell-based, human
- condition context: Homo sapiens, HTB-54, 48 h, read-out: Cell growth %, HTB-54, 50 µM, 48 h, MTT
Output: class label from activity at 50 µM. Mapping: low class: < 30%; middle class: ≥ 30% and < 40%; high class: ≥ 40%

Take a look at these entries with their results.
>>> assigned_class("C#CCNC(=[Se])NC(=O)/C=C/c1ccco1 [Compound 3.III]")
"middle class"
>>> assigned_class("C=CCNC(=[Se])NC(=O)/C=C/c1cccs1 [Compound 4.II]")
"high class"
>>> assigned_class("C=CCNC(=[Se])NC(=O)c1ccccc1 [Compound 5.II, N-(allylcarbamoselenoyl)benzamide]")
"low class"
>>> assigned_class("C#CCNC(=[Se])NC(=O)c1ccco1 [Compound 1.III]")
"high class"
>>> assigned_class("CCCNC(=[Se])NC(=O)c1ccccc1 [Compound 5.I, N-(propylcarbamoselenoyl)benzamide]")
"low class"

Sort into band: C#CCNC(=[Se])NC(=O)c1ccccc1 [Compound 5.III]
middle class

Sort into band: C=CCNC(=O)c1cccc(C(=O)NC(=[Se])NCC=C)c1 [Compound 11.II]
low class

Sort into band: CCCNC(=[Se])NC(=O)c1ccco1 [Compound 1.I]
middle class

Sort into band: C#CCNC(=[Se])NC(=O)c1ccc2c(c1)OCO2 [Compound 8.III]
middle class

Sort into band: C=CCNC(=[Se])NC(=O)/C=C/c1ccccc1 [Compound 6.II, N-(allylcarbamoselenoyl)cinnamamide]
high class

Sort into band: C=CCNC(=[Se])NC(=O)/C=C/c1ccco1 [Compound 3.II]
middle class

---

# Lookup of reported inhibition keyed by entry
- run description: DPPH radical scavenging assay
- Assay type: biochemical
- condition context: 0.03 mg/mL, 5 min
- Description: Different methods are available to quantify the antioxidant capacity of natural or novel molecules. Notable among these are the ABTS^•+ and DPPH^• methods, which measure the quenching efficiency in vitro for known concentrations of preformed radicals. […] Measurements were recorded on a BioTeck PowerWave XS spectrophotometer (BioTeck Instruments, Winooski, VT, USA) and data were collected using KCJunior v.1.41. software (BioTeck Instruments, Winooski, VT, USA). […]
// units = %; emit number, no label

inhibition reported for this compound C#CCNC(=[Se])NC(=O)/C=C/c1ccco1 : 6.3

inhibition reported for this compound C=CCNC(=O)c1cccc(C(=O)NC(=[Se])NCC=C)c1 : 38.5

---

- System: DU-145 cells
- run description: Protective effects against H2O2-induced oxidative stress in DU-145 cells (MTT)
- Format: cell-based, human
- condition context: increase-fold of cell survival; compound 0.0015 mg/mL, 300 µM H2O2, DU-145
# Lookup of reported Increase-fold keyed by entry
Reply with the value as a number alone.

Sample answers from the record:
>>> test_result("CCCNC(=[Se])NC(=O)c1cccs1 [Compound 2.I]")
2.9
>>> test_result("C=CCNC(=[Se])NC(=O)c1cccnc1 [Compound 7.II, N-(allylcarbamoselenoyl)nicotinamide]")
1.4
>>> test_result("C=CCNC(=[Se])NC(=O)c1cccc(C(=O)NC(=[Se])NCC=C)c1 [Compound 10.II]")
1.1
>>> test_result("CCCNC(=[Se])NC(=O)c1ccccc1 [Compound 5.I, N-(propylcarbamoselenoyl)benzamide]")
2.4
>>> test_result("O=C1O[C@H]([C@@H](O)CO)C(O)=C1O [Asc. Acid, ascorbic acid, reference compound]")
1.5

Next compound, please.
Increase-fold reported for this compound CCCNC(=[Se])NC(=O)c1ccco1 [Compound 1.I] : 2.3

---

# Lookup of reported melting point keyed by entry

Sample answers from the record:
>>> test_result("C=CCNC(=[Se])NC(=O)/C=C/c1ccco1")
"104 to 105 °C"
>>> test_result("C=CCNC(=[Se])NC(=O)/C=C/c1ccc2c(c1)OCO2")
"187 to 188 °C"
>>> test_result("CCCNC(=[Se])NC(=O)/C=C/c1ccccc1 [Compound 6.I, N-(propylcarbamoselenoyl)cinnamamide]")
"125 to 126 °C"
>>> test_result("C#CCNC(=[Se])NC(=O)/C=C/c1ccco1")
"118 to 119 °C"

melting point reported for this molecule C=CCNC(=[Se])NC(=O)/C=C/c1cccs1 : 104 to 105 °C

---

- run description: DPPH radical scavenging assay
- Type: biochemical
- condition context: 0.03 mg/mL, 15 min
Threshold rule: inhibition greater than or equal to 60% is Satisfied; below that, Not satisfied.

Take a look at these entries with their results.
>>> assigned_class("Cc1c(C)c2c(c(C)c1O)CCC(C)(C(=O)O)O2 (stereo not drawn) [Trolox, trolox, reference compound]")
"Satisfied"
>>> assigned_class("CCCNC(=[Se])NC(=O)c1ccccc1 [Compound 5.I, N-(propylcarbamoselenoyl)benzamide]")
"Not satisfied"
>>> assigned_class("C=CCNC(=[Se])NC(=O)c1ccco1 [Compound 1.II]")
"Satisfied"
>>> assigned_class("C=CCNC(=[Se])NC(=O)c1cccs1 [Compound 2.II]")
"Satisfied"
>>> assigned_class("C#CCNC(=[Se])NC(=O)c1ccco1 [Compound 1.III]")
"Not satisfied"

API: above_or_equal(metric=inhibition, cutoff=60%) for item CCCNC(=[Se])NC(=O)c1ccco1 [Compound 1.I]
Not satisfied

API: above_or_equal(metric=inhibition, cutoff=60%) for item C#CCNC(=[Se])NC(=O)c1cccs1 [Compound 2.III]
Not satisfied

API: above_or_equal(metric=inhibition, cutoff=60%) for item CCCNC(=[Se])NC(=O)/C=C/c1ccccc1 [Compound 6.I, N-(propylcarbamoselenoyl)cinnamamide]
Not satisfied

API: above_or_equal(metric=inhibition, cutoff=60%) for item C=CCNC(=[Se])NC(=O)c1cccc(C(=O)NC(=[Se])NCC=C)c1 [Compound 10.II]
Satisfied

API: above_or_equal(metric=inhibition, cutoff=60%) for item C=CCNC(=[Se])NC(=O)c1ccc2c(c1)OCO2 [Compound 8.II]
Not satisfied

API: above_or_equal(metric=inhibition, cutoff=60%) for item C=CCNC(=[Se])NC(=O)/C=C/c1ccccc1 [Compound 6.II, N-(allylcarbamoselenoyl)cinnamamide]
Not satisfied

API: above_or_equal(metric=inhibition, cutoff=60%) for item C=CCNC(=[Se])NC(=O)c1ccccc1 [Compound 5.II, N-(allylcarbamoselenoyl)benzamide]
Satisfied

API: above_or_equal(metric=inhibition, cutoff=60%) for item O=C1O[C@H]([C@@H](O)CO)C(O)=C1O [Asc. Acid, ascorbic acid, reference compound]
Satisfied

API: above_or_equal(metric=inhibition, cutoff=60%) for item C=CCNC(=[Se])NC(=O)c1cccnc1 [Compound 7.II, N-(allylcarbamoselenoyl)nicotinamide]
Satisfied

API: above_or_equal(metric=inhibition, cutoff=60%) for item C#CCNC(=[Se])NC(=O)c1ccc2c(c1)OCO2 [Compound 8.III]
Not satisfied

---

- run description: DPPH radical scavenging assay
- Type: biochemical
- condition context: 0.03 mg/mL, 15 min
experimental readout: inhibition (%)
// units = %; emit number, no label

>>> test_result("C#CCNC(=[Se])NC(=O)/C=C/c1ccco1")
10.9

inhibition reported for this compound C=CCNC(=O)c1cccc(C(=O)NC(=[Se])NCC=C)c1 : 56.8

inhibition reported for this compound C=CCNC(=[Se])NC(=O)/C=C/c1ccco1 : 9

inhibition reported for this compound C=CCNC(=[Se])NC(=O)/C=C/c1ccc2c(c1)OCO2 : 10.1

---

- run description: DPPH radical scavenging assay
- Format: biochemical
- condition context: 0.03 mg/mL, 30 min
Threshold rule: inhibition greater than or equal to 60% is TRUE; below that, FALSE.

>>> assigned_class("C=CCNC(=[Se])NC(=O)/C=C/c1ccc2c(c1)OCO2 [Compound 9.II]")
"FALSE"
>>> assigned_class("C#CCNC(=[Se])NC(=O)c1ccc2c(c1)OCO2 [Compound 8.III]")
"FALSE"
>>> assigned_class("C=CCNC(=[Se])NC(=O)c1ccccc1 [Compound 5.II, N-(allylcarbamoselenoyl)benzamide]")
"TRUE"
>>> assigned_class("Cc1c(C)c2c(c(C)c1O)CCC(C)(C(=O)O)O2 (stereo not shown) [Trolox, trolox, reference compound]")
"TRUE"

API: above_or_equal(metric=inhibition, cutoff=60%) for item C=CCNC(=[Se])NC(=O)/C=C/c1cccs1 [Compound 4.II]
FALSE

API: above_or_equal(metric=inhibition, cutoff=60%) for item C=CCNC(=[Se])NC(=O)c1ccco1 [Compound 1.II]
TRUE

API: above_or_equal(metric=inhibition, cutoff=60%) for item CCCNC(=[Se])NC(=O)c1ccco1 [Compound 1.I]
FALSE

API: above_or_equal(metric=inhibition, cutoff=60%) for item CCCNC(=[Se])NC(=O)c1ccccc1 [Compound 5.I, N-(propylcarbamoselenoyl)benzamide]
FALSE
